meta.source: patent US6337399B1

# protocol.text: Solubility of each salt of T-3811 in distilled water
# Type: physicochemical
# condition.context: pH given beside the solubility of each salt in distilled water
Mark Condition met for reported pH of 4 or greater; mark Condition not met for anything smaller.

Examples with answers:
C[C@H]1NCc2cc(-c3ccc4c(=O)c(C(=O)[O-])cn(C5CC5)c4c3OC(F)F)ccc21.[Na+] [Sodium salt] ... Condition met
CS(=O)(=O)O.C[C@H]1NCc2cc(-c3ccc4c(=O)c(C(=O)O)cn(C5CC5)c4c3OC(F)F)ccc21 [Methanesulfonate] ... Condition not met
C[C@H]1NCc2cc(-c3ccc4c(=O)c(C(=O)O)cn(C5CC5)c4c3OC(F)F)ccc21.O=S(=O)(O)O [Sulfate] ... Condition not met
C[C@H]1NCc2cc(-c3ccc4c(=O)c(C(=O)[O-])cn(C5CC5)c4c3OC(F)F)ccc21.C[C@H]1NCc2cc(-c3ccc4c(=O)c(C(=O)[O-])cn(C5CC5)c4c3OC(F)F)ccc21.[Mg+2] [Magnesium salt] ... Condition met

Continue with the next compound.
Ask | Say whether C[C@H]1NCc2cc(-c3ccc4c(=O)c(C(=O)O)cn(C5CC5)c4c3OC(F)F)ccc21.O=P(O)(O)O [Phosphate] shows pH of 4 or more.
Reply | Condition not met
